Test system: MT-2 cells
Assay: Cytotoxicity assay in MT-2 cells
Format: cell-based
Conditions: Table 1, read-out: Cytotoxicity in different cells (IC50, μM) MT-2
measurementName: IC50

>>> df
                               linenotation  measurementname  valueobserved
0  Cc1ccccc1C(=O)Nc1nc(=O)n([C@H]2CC[C@@H](CO)O2)cc1F             IC50        > 50 µM
1  O=C(Nc1nc(=O)n([C@H]2CC[C@@H](CO)O2)cc1F)c1ccccc1[N+](=O)[O-]             IC50        > 50 µM
2  O=C(Nc1nc(=O)n([C@H]2CC[C@@H](CO)O2)cc1F)c1ccco1             IC50        > 50 µM
3  CCCC(=O)Nc1nc(=O)n([C@H]2CC[C@@H](CO)O2)cc1F             IC50         7.2 µM
4  O=C(Nc1nc(=O)n([C@H]2CC[C@@H](CO)O2)cc1F)c1cccc([N+](=O)[O-])c1             IC50        > 50 µM
5  O=C(Nc1nc(=O)n([C@H]2CC[C@@H](CO)O2)cc1F)c1cccnc1             IC50        > 50 µM
6  COc1ccc(C(=O)Nc2nc(=O)n([C@H]3CC[C@@H](CO)O3)cc2F)cc1             IC50          16 µM

Below: the item to evaluate.
QUERY: Checklist item: IC50 tested on MT-2 cells, entry O=C(Nc1nc(=O)n([C@H]2CC[C@@H](CO)O2)cc1F)c1ccccc1 , value?
RESULT: 19 µM

====

Tested on: CEM (human lymphoblastoid) cells
Experiment: Cytotoxicity assay in CEM cells
Assay type: cell-based
Settings: Table 2, read-out: Cytotoxicity in different cells (IC50, μM) CEM
measurementName: IC50 (µM)
Write the value in µM as a bare number.

                               linenotation                      testedtarget  valueobserved
0  O=C(Nc1nc(=O)n([C@H]2C=C[C@@H](CO)O2)cc1F)c1ccc([N+](=O)[O-])cc1  CEM (human lymphoblastoid) cells            4.2
1  O=C(Nc1nc(=O)n([C@H]2C=C[C@@H](CO)O2)cc1F)c1cccnc1  CEM (human lymphoblastoid) cells            6.7
2  O=C(Nc1nc(=O)n([C@H]2C=C[C@@H](CO)O2)cc1F)c1cccc(Br)c1  CEM (human lymphoblastoid) cells           24.9

QUERY: Fill in the blank: the reported IC50 of CCCC(=O)Nc1nc(=O)n([C@H]2C=C[C@@H](CO)O2)cc1F is ____.
RESULT: 12.2

QUERY: // returns reported IC50 for input CCCCc1ccc(C(=O)Nc2nc(=O)n([C@H]3C=C[C@@H](CO)O3)cc2F)cc1
RESULT: 8.5

QUERY: Consider the molecule O=C(Nc1nc(=O)n([C@H]2C=C[C@@H](CO)O2)cc1F)c1cc2ccccc2s1 and give its measured IC50.
RESULT: 2.8

QUERY: Please report the recorded IC50 for O=C(Nc1nc(=O)n([C@H]2C=C[C@@H](CO)O2)cc1F)c1cccc(F)c1 .
RESULT: 4.2

QUERY: Report IC50 for COc1cccc(C(=O)Nc2nc(=O)n([C@H]3C=C[C@@H](CO)O3)cc2F)c1 please.
RESULT: 24.6

====

System: HepG2 cells
Assay: Cytotoxicity assay in HepG2 cells
Format: cell-based
Conditions: Table 2, read-out: Cytotoxicity in different cells (IC50, μM) HepG2
measurementName: IC50 (µM)
Reply with just the number (in µM).

Consider the following illustrative entries.
In [3]: df
Out[3]:
                                   molecule  measurementname  unitlabel  valueobserved
0  O=C(Nc1nc(=O)n([C@H]2C=C[C@@H](CO)O2)cc1F)c1ccc([N+](=O)[O-])cc1 [Compound 45]             IC50         µM            5.6
1  O=C(Nc1nc(=O)n([C@H]2C=C[C@@H](CO)O2)cc1F)c1cc2ccccc2s1 [Compound 56]             IC50         µM            1.3
2  O=C(Nc1nc(=O)n([C@H]2C=C[C@@H](CO)O2)cc1F)c1cccnc1 [Compound 55]             IC50         µM           10.3
3  O=C(Nc1nc(=O)n([C@H]2C=C[C@@H](CO)O2)cc1F)c1cccc(Cl)c1 [Compound 40]             IC50         µM           32.4
4  O=C(Nc1nc(=O)n([C@H]2C=C[C@@H](CO)O2)cc1F)c1cccs1 [Compound 54]             IC50         µM            2.3

QUERY: Entry under review: COc1ccccc1C(=O)Nc1nc(=O)n([C@H]2C=C[C@@H](CO)O2)cc1F [Compound 44] . Reported IC50?
RESULT: 3.4

QUERY: So what's the measured IC50 for this one? CCCCc1ccc(C(=O)Nc2nc(=O)n([C@H]3C=C[C@@H](CO)O3)cc2F)cc1 [Compound 52]
RESULT: 5.1

====

Reported IC50 by item:
Test: Cytotoxicity assay in Vero cells
Assay type: cell-based
Conditions: African green monkey, Table 2, read-out: Cytotoxicity in different cells (IC50, μM) Vero
Give just the number in µM; leave the unit off.

In [3]: df
Out[3]:
                               linenotation  valueobserved
0  O=C(Nc1nc(=O)n([C@H]2C=C[C@@H](CO)O2)cc1F)C1CCCC1           87.6

QUERY: I am curious: what IC50 value has been reported for O=C(Nc1nc(=O)n([C@H]2C=C[C@@H](CO)O2)cc1F)c1ccc(F)cc1 ?
RESULT: 83.1

QUERY: Which measured IC50 value corresponds to O=C(Nc1nc(=O)n([C@H]2C=C[C@@H](CO)O2)cc1F)c1ccc(Cl)cc1 ?
RESULT: 72.2

QUERY: Endpoint output: IC50 of Cc1cccc(C(=O)Nc2nc(=O)n([C@H]3C=C[C@@H](CO)O3)cc2F)c1 . Value?
RESULT: 149

QUERY: Consider the molecule O=C(Nc1nc(=O)n([C@H]2C=C[C@@H](CO)O2)cc1F)c1ccc(I)cc1 and give its measured IC50.
RESULT: 100

QUERY: What value of IC50 has been recorded for this entry: O=C(Nc1nc(=O)n([C@H]2C=C[C@@H](CO)O2)cc1F)c1ccc(Br)cc1
RESULT: 40.5

====

Test: Cytotoxicity assay in Vero cells
Format: cell-based
Settings: African green monkey, Table 1, read-out: Cytotoxicity in different cells (IC50, μM) Vero
measurementName: IC50 (µM)
Return type: number; implicit unit µM.

>>> print(df.to_string())
                               linenotation  valueobserved
0  O=C(Nc1nc(=O)n([C@H]2CC[C@@H](CO)O2)cc1F)c1cccc(Cl)c1           91.6

Shift focus to the following entry.
QUERY: Which IC50 value belongs to O=C(Nc1nc(=O)n([C@H]2CC[C@@H](CO)O2)cc1F)c1cccs1 ?
RESULT: 23.9

====

Assay: Cytotoxicity assay in HepG2 cells
Assay type: cell-based
Details: human, Table 1, read-out: Cytotoxicity in different cells (IC50, μM) HepG2
IC50 values for the compounds below.

Reference set, count: 6
In [3]: df
Out[3]:
                               linenotation  measurementname  valueobserved
0  O=C(Nc1nc(=O)n([C@H]2CC[C@@H](CO)O2)cc1F)c1ccc(I)cc1             IC50       > 100 µM
1  O=C(Nc1nc(=O)n([C@H]2CC[C@@H](CO)O2)cc1F)c1cccs1             IC50        37.9 µM
2  O=C(Nc1nc(=O)n([C@H]2CC[C@@H](CO)O2)cc1F)C1CCCCC1             IC50         6.5 µM
3  CCc1ccc(C(=O)Nc2nc(=O)n([C@H]3CC[C@@H](CO)O3)cc2F)cc1             IC50       > 100 µM
4  O=C(Nc1nc(=O)n([C@H]2CC[C@@H](CO)O2)cc1F)c1cccc(F)c1             IC50       > 100 µM
5  O=C(Nc1nc(=O)n([C@H]2CC[C@@H](CO)O2)cc1F)c1ccc([N+](=O)[O-])cc1             IC50       > 100 µM

QUERY: I would be grateful if you could share the reported IC50 for Cc1cccc(C(=O)Nc2nc(=O)n([C@H]3CC[C@@H](CO)O3)cc2F)c1 .
RESULT: > 100 µM

QUERY: Any idea what IC50 was measured for Cc1ccc(C(=O)Nc2nc(=O)n([C@H]3CC[C@@H](CO)O3)cc2F)cc1 ?
RESULT: > 100 µM
